Tested on: human platelets
Experiment: ADP-stimulated platelet aggregation assay (gel-filtered human platelets)
Assay type: cell-based
Conditions: fibrinogen, CaCl2 1 mM, ADP-initiated, initial rate of increase of light transmittance, read-out: IC50 (inhibition of platelet aggregation)
pIC50: −log10 of the molar value.
# Lookup of reported pIC50 keyed by entry

| compound | pIC50 |
| --- | --- |
| O=C(O)C(Cc1ccc(OCCCCC2CCNCC2)cc1)CS(=O)(=O)Cc1ccccc1 (stereo not drawn) [CH2 SO2 CH2 Ph] | 5.80 |
| O=C(O)C(CNCc1ccccc1)Cc1ccc(OCCCCC2CCNCC2)cc1 (stereo not drawn) [CH2 NHCH2 Ph] | 4.74 |
| CCCCS(=O)(=O)NCC(Cc1ccc(OCCCCC2CCNCC2)cc1)C(=O)O (stereo not drawn) [CH2 NHSO2 C4 H9] | 5.54 |
| O=C(NCC(Cc1ccc(OCCCCC2CCNCC2)cc1)C(=O)O)c1ccccc1 (stereo not drawn) [CH2 NHC(O)Ph] | 5.51 |
| CCCCS(=O)(=O)CC(Cc1ccc(OCCCCC2CCNCC2)cc1)C(=O)O (stereo not drawn) [CH2 SO2 C4 H9] | 6.19 |
| O=C(O)C(Cc1ccccc1)Cc1ccc(OCCCCC2CCNCC2)cc1 (stereo not drawn) [CH2 Ph] | 3.94 |
| COC(=O)C(Cc1ccc(OCCCCC2CCNCC2)cc1)C(=O)O (stereo not drawn) [CO2 CH3] | 5.24 |
| O=C(O)C(Cc1ccc(OCCCCC2CCNCC2)cc1)C(=O)O [CO2 H] | 5.49 |
| O=C(O)C(O)Cc1ccc(OCCCCC2CCNCC2)cc1 (stereo not drawn) [OH] | 5.07 |
